tested on: Wnt5a (protein binding on small-molecule microarray); experiment: Wnt5a binders on small-molecule microarray, primary screen, biophysical, 635/667 nm fluorescence (AID 1142); settings: 635 nm fluorescence, higher = more signal;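 note: fluorescence read at 667 nm with signal to noise per printed feature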
Recorded composite z-score, one value per entry.
// return just the number, without any unit appended

| compound | observed-property | value-reported |
| --- | --- | --- |
| C=C(CCCC)C(=O)CC[C@H](OC(C)=O)c1ccccc1OCCO | composite z-score | 0.241 |
| CCCCN1CC=CC23O[C@@H]4C=CCOC(=O)[C@@H]4[C@H]2C(=O)N(C(CO)C(C)C)[C@@H]3C1=O (some centres undefined) | composite z-score | -0.0661 |
| CN1C(=O)C2C=CC(C(O)c3ccc(-c4ccccc4)s3)N(Nc3ccccc3)C2C1=O (centres undefined) | composite z-score | -0.24 |
| CN(C)CCCC[C@@H]1NC(=O)[C@@H]2C[C@H](C(=O)NCCCCCCNC(=O)CS)[C@H](c3cccc(OCCO)c3)N2C1=O | composite z-score | 0.152 |
| CCOC(=O)C[C@H]1[C@H](OC(=O)c2ccc(C(=O)c3ccccc3)cc2)[C@@H](NC(=O)c2ccc3ccccc3c2)c2cc(OCCCO)ccc2N1C(=O)c1ccc2ccccc2n1 | composite z-score | 0.289 |

Problem: // returns reported composite z-score for input COCCOC(=O)N1C(=O)[C@@]2(c3cc(C#CCCO)ccc31)[C@H](C(=O)N1CCc3cc(OC)c(OC)cc3C1)[C@H]1C(=O)O[C@H](c3ccccc3)[C@H](c3ccccc3)N1[C@@H]2c1ccccc1OCCO
Solution: 0.75

Problem: Bench note: what composite z-score did CCc1cccc(NC(=O)O[C@H]2[C@H](OC(=O)Nc3ccc4c(c3)OCO4)[C@H](OC(=O)Nc3ccc4c(c3)OCO4)[C@@H](OC)O[C@@H]2CO)c1 show?
Solution: 0.322

Problem: Looking for the measured composite z-score of COC(=O)Cn1c(C(=O)N(C)C)cc2c1C[C@H]1CN(C(=O)c3ccccc3)[C@@](Cc3ccc(OC)cc3)(C(=O)OC)[C@@H]21 , can you help?
Solution: 1.09

Problem: Quick one: composite z-score for CCCCC(=C=CC[C@H](O)c1ccc(OCCO)cc1)C[C@H](O)c1ccccn1 ?
Solution: 0.259

Problem: # input compound: CCCCCCc1nc(-c2ccc(OC)nc2)cc2c1[Si](C(C)C)(C(C)C)OC2 ; wanted: its composite z-score
Solution: -0.446

Problem: Returns the measured composite z-score for the input compound. Input: CN(C)CCCNC(=O)[C@@]1(Cc2ccccc2I)c2ccccc2C(=O)N(Cc2ccccc2)[C@H]1c1ccc(CO)cc1
Solution: 0.652

Problem: Need composite z-score, item CC(C)C[C@H]1NC(=O)[C@H](Cc2ccccc2)NC(=O)[C@@]23C(=O)N[C@@H](Cc4ccccc4)C2[C@H](C)[C@@]2(C)O[C@H]2C3/C=C/C/C=C\CNC1=O (some centres undefined)
Solution: 0.116

Problem: Name the reported composite z-score value associated with the compound C=C(CCCC)C(=O)CC[C@H](OC(=O)c1cccnc1)c1ccc(CO)o1
Solution: 0.239

Problem: # lookup: composite z-score of COc1cccc(C[C@H]2C[C@@H](CO[Si](C(C)C)(C(C)C)C(C)C)N3C(=O)[C@@]4(C(C)=O)O[C@@]23[C@@H]2C(=O)N(C)C(=O)[C@@H]24)c1
Solution: 0.0121

---

tested on: Lefty1; assay: Lefty1 binders on small-molecule microarrays, primary screen, biochemical, small-molecule microarray, 635/667 nm fluorescence (AID 1139); settings: small-molecule microarray binding, fluorescence 635/667; higher = more signal
observed-property: composite z-score
Answer with the value's number alone.

Problem: Request the reported composite z-score associated with COC(=O)[C@@]1(Cc2ccc(F)cc2)[C@H]2c3cc(C(=O)N(C)C)n(CCN4CCOCC4)c3C[C@H]2CN1C(=O)c1ccccc1
Solution: -0.0199

Problem: I would be grateful if you could share the reported composite z-score for CCCCN1CC=CC23O[C@@H]4C=CCOC(=O)[C@@H]4[C@H]2C(=O)N(CCO)[C@@H]3C1=O (stereo not given in full) .
Solution: -1.45

---

A collection of molecules and their measured composite z-score
system: Human papillomavirus type 1a E7 protein (residues 1-88); test: HPV1a E7 small-molecule binders, primary screen, biochemical, small-molecule microarray, residues 1-88, 635 nm (AID 1129); conditions: small-molecule microarray binding, fluorescence 635 nm; higher = more signal
Just the number, please.

| molecule | composite z-score |
| --- | --- |
| CC(=O)NCCCC[C@@H]1NC(=O)[C@H]2C[C@@H](C(=O)NCCCCCC[N+](C)(C)C)[C@@H](c3ccc(O)cc3)N2C1=O | 1.08 |
| C[C@H]1C2[C@H](Cc3ccccc3)NC(=O)[C@]23C(=O)NCC(=O)N2CCC[C@H]2C(=O)NC/C=C\C/C=C/C3[C@@H]2O[C@]12C (stereo partly specified) | -0.0402 |
| C=CCOC(=O)[C@H]1[C@@H]2C(=O)O[C@@H](c3ccccc3)[C@@H](c3ccccc3)N2[C@@H](c2ccc(OCCOC(=O)[C@@H]3C[C@@H]4C(=O)N[C@@H](CC(C)C)C(=O)N4[C@@H]3c3ccc(O)cc3)cc2)[C@]12C(=O)Nc1ccc(I)cc12 | 0.935 |

Problem: I have this molecule here, CCCCCCc1nc(-c2ccc(OC)nc2)cc2c1[Si](C(C)C)(C(C)C)OC2 , and I need its recorded composite z-score.
Solution: -0.493

Problem: Param item = CCOC(=O)C1=CC[C@@H](c2ccc(F)cc2)N(S(=O)(=O)c2ccc(C)cc2)[C@H]1c1ccc([N+](=O)[O-])cc1 ; retrieve measured composite z-score.
Solution: 1.19

Problem: Can you look up the measured composite z-score of COCCOC(=O)N1C(=O)[C@@]2(c3cc(C#CCCO)ccc31)[C@H](C(=O)N1CCc3cc(OC)c(OC)cc3C1)[C@H]1C(=O)O[C@H](c3ccccc3)[C@H](c3ccccc3)N1[C@@H]2c1ccccc1OCCO for me?
Solution: 1.19

---

assay: small-molecule microarray binders of probe aXIP, primary screen, biochemical, NeuroSMM set, 635/667 nm fluorescence (AID 1119); details: higher = more signal, called active from +8 up or from −8 down;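 note: probe is the protein aXip251-270 applied at 1 µg/mL to compound-printed slides; binding of probe to printed compounds measured as 667 nm fluorescence plus signal to noise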
observed-property: composite Z-score
Number, no unit, nothing else.

Worked examples, 10 molecules total:
| molecule | composite Z-score |
| --- | --- |
| CN1C(=O)[C@]2(CCC(=O)OC(C)(C)C)N=C(c3ccc(OCCCO)cc3)O[C@@H]2c2ccccc21 | 0.0786 |
| CC(C)[Si](C#CCCCC#N)(O[C@H](c1ccccc1)c1cn([C@H](C)c2ccccc2)nn1)C(C)C | -0.0102 |
| C=CCN1C(=O)[C@]2(O[C@H](CCn3cc([C@H](O)c4ccccc4)nn3)[C@@H]([Si](C)(C)c3ccc(OC)cc3)[C@@H]2C)c2cc(N3C(=O)c4cccc5cccc3c45)ccc21 | 0.783 |
| CC1(C)OC[C@@]23C=C(Br)[C@@H](C[C@H]12)[C@@]1(CO1)C3=O | 0.0315 |
| CC(C)(C)N1CC=CC23O[C@@H]4/C=C\CCCOC(=O)C4[C@H]2C(=O)N(CCCCCCO)[C@@H]3C1=O (some centres undefined) | -0.617 |
| [N-]=[N+]=NCc1ccccc1C[C@@]1(C(=O)O)N=C(c2ccc(OCCCO)cc2)O[C@@H]1c1ccccc1CN=[N+]=[N-] | 0.259 |
| COCCOC(=O)N1C(=O)[C@@]2(c3cc(C#CCCO)ccc31)[C@H](c1ccccc1OCCO)N1[C@H](c3ccccc3)[C@H](c3ccccc3)OC(=O)[C@H]1[C@@H]2C(=O)N1CCc2cc(OC)c(OC)cc2C1 | 0.339 |
| COc1ccc(NN2C(C(O)c3cc(C(F)(F)F)cc(C(F)(F)F)c3)C=CC3C(=O)N(C4CCCCC4)C(=O)C32)cc1 (centres undefined) | -0.0097 |
| COC(=O)[C@@]1(Cc2ccccc2CN=[N+]=[N-])COC(c2ccc(OCCCO)cc2)=N1 | 0.978 |
| O=C1OCCC=C[C@H]2OC34C=CCN(CCN5CCOCC5)C(=O)[C@H]3N(CCCO)C(=O)[C@@H]4C12 (some centres undefined) | 1.11 |

Switching to the query record.
Problem: Dear colleague, I am looking for the recorded composite Z-score of the following molecule: NCCCC[C@@H]1NC(=O)[C@H]2C[C@@H](C(=O)NCc3ccc(F)cc3)[C@@H](c3cccc(OCCO)c3)N2C1=O
Solution: 0.125

---

test system: Sonic hedgehog protein (Shh); assay: small-molecule binders of Shh protein, primary screen, biochemical, small-molecule microarray, 635/667 nm fluorescence (AID 1151); settings: small-molecule microarray binding, 635 nm fluorescence; higher = more signal;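 note: Shh protein binding to compounds spotted on small-molecule microarray slides; score combines spot fluorescence intensity with signal-to-noise across triplicate slides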
observed-property: composite z-score
Respond numerically, and do not add a unit to the figure.

Look over these answered cases.
| compound | value-reported |
| --- | --- |
| C=CCC(OC(C)=O)[C@@H]1[C@@H](N(Cc2cccc3ccccc23)C(=O)c2ccc(-c3ccccc3)cc2)c2cc(OCCCO)ccc2N1C(=O)c1ccc2ccccc2n1 (stereo not given in full) | 0.664 |
| O=C1NC(=O)C2C1C=CC(C(O)c1ccc(F)cc1)N2Nc1ccccn1 (stereo not given) | 0.123 |
| C[C@]1(C(=O)NCC(F)(F)F)c2ccccc2C(=O)N(Cc2ccc(OC(F)(F)F)cc2)[C@H]1c1ccc(CO)cc1 | 0.31 |

Problem: Identify the measured composite z-score of CC(C)CNC(=O)[C@@H]1c2ccccc2C(=O)N(Cc2ccccc2Cl)[C@H]1c1ccc(CO)cc1 for Sonic hedgehog protein (Shh).
Solution: 0.145

Problem: # returns recorded composite z-score (system: Sonic hedgehog protein (Shh)) for CC(C)C[C@H]1NC(=O)[C@H](Cc2ccccc2)NC(=O)[C@@]23C(=O)N[C@@H](Cc4ccccc4)C2[C@H](C)[C@@]2(C)O[C@H]2C3/C=C/C/C=C\CNC1=O (stereo not given in full)
Solution: 0.889

Values were extracted from PubChem BioAssay.
